Protocol description: mn = molality of the nth substance listed, in mol/kg
Particulars: 293.15 K; 100 kPa; Liquid; Vibrating tube method; m1 = 0.5
Numbers after ± are expanded uncertainties.
List of mass density values.
Could you give the number and then its unit, please?

Please give the measured mass density for this compound: C[C@H](N)C(=O)O [(S)-2-aminopropanoic acid] + O
1012.07 ± 1.4 kg/m3

Item: C[C@@H](O)[C@H](N)C(=O)O [L-threonine] + O
1018.46 ± 1.4 kg/m3

Item: N=C(N)NCCC[C@H](N)C(=O)O [L-arginine] + O
1021.57 ± 1.4 kg/m3

Item: NCC(=O)O [2-aminoacetic acid] + O
1013.74 ± 1.4 kg/m3

###

Protocol description: mn = molality of the nth substance listed, in mol/kg
Particulars: 293.15 K; 100 kPa; Liquid; Vibrating tube method; m1 = 0.6
List of mass density values.
Supply the numeric figure in kg/m3, leaving out any unit text.

[[record]]
compound = "OC[C@@H](O)[C@@H](O[C@H]1O[C@H](CO)[C@@H](O)[C@H](O)[C@H]1O)[C@H](O)[C@@H](O)CO [4-O-α-D-glucopyranosyl-D-glucitol] + O"
measured_number = 1066.2

[[record]]
compound = "N=C(N)NCCC[C@H](N)C(=O)O [L-arginine] + O"
measured_number = 1025.85

[[record]]
compound = "NCC(=O)O [2-aminoacetic acid] + O"
measured_number = 1016.72


Please give the measured mass density for this compound: C[C@@H](O)[C@H](N)C(=O)O [L-threonine] + O
1022.28

Item: C[C@H](N)C(=O)O [(S)-2-aminopropanoic acid] + O
1014.71

###

List of viscosity values.
Protocol description: mn = molality of the nth substance listed, in mol/kg
Particulars: 293.15 K; 100 kPa; Liquid; Capillary tube (Ostwald / Ubbelohde) method; m1 = 0.7
± gives the expanded uncertainty stated by the source.
Could you give the number and then its unit, please?

Observe how each entry below is paired with its result.
[[record]]
compound = "N=C(N)NCCC[C@H](N)C(=O)O [L-arginine] + O"
observable = "viscosity"
result = "1.435 ± 0.058 mPa·s"

[[record]]
compound = "C[C@H](N)C(=O)O [(S)-2-aminopropanoic acid] + O"
observable = "viscosity"
result = "1.193 ± 0.048 mPa·s"

[[record]]
compound = "NCC(=O)O [2-aminoacetic acid] + O"
observable = "viscosity"
result = "1.101 ± 0.045 mPa·s"


Moving on to the next compound.
Please give the measured viscosity for this compound: C[C@@H](O)[C@H](N)C(=O)O [L-threonine] + O
1.263 ± 0.051 mPa·s

###

Protocol description: mn = molality of the nth substance listed, in mol/kg
Particulars: 323.15 K; 100 kPa; Liquid; Capillary tube (Ostwald / Ubbelohde) method; m1 = 0.6
± gives the expanded uncertainty stated by the source.
Observable: viscosity

[[record]]
compound = "NCC(=O)O [2-aminoacetic acid] + O"
result = "0.6 ± 0.024 mPa·s"

[[record]]
compound = "C[C@@H](O)[C@H](N)C(=O)O [L-threonine] + O"
result = "0.651 ± 0.026 mPa·s"

[[record]]
compound = "N=C(N)NCCC[C@H](N)C(=O)O [L-arginine] + O"
result = "0.713 ± 0.029 mPa·s"

[[record]]
compound = "C[C@H](N)C(=O)O [(S)-2-aminopropanoic acid] + O"
result = "0.624 ± 0.025 mPa·s"


Please give the measured viscosity for this compound: OC[C@@H](O)[C@@H](O[C@H]1O[C@H](CO)[C@@H](O)[C@H](O)[C@H]1O)[C@H](O)[C@@H](O)CO [4-O-α-D-glucopyranosyl-D-glucitol] + O
0.874 ± 0.035 mPa·s
